Test: Dynamic solubility experiment at 37° C.
Type: physicochemical
Conditions: FaSSIF, 1 h
Structures can show the parent of a compound that is named as a salt.
observed.property: S: solubility
Answer format: number, then unit.

# count of solved cases: 3
Cc1cnc(-c2cc(O[C@@H](C)[C@@H](C)O)cc(C(=O)N[C@H](C)c3cnc(C(F)(F)F)nc3)c2F)s1 [Free base crystalline form A] :: 10 µg/mL
Cc1cnc(-c2cc(O[C@@H](C)[C@@H](C)O)cc(C(=O)N[C@H](C)c3cnc(C(F)(F)F)nc3)c2F)s1 [Crystalline form A of p-toluenesulfonate] :: 28 µg/mL
Cc1cnc(-c2cc(O[C@@H](C)[C@@H](C)O)cc(C(=O)N[C@H](C)c3cnc(C(F)(F)F)nc3)c2F)s1 [Crystalline form A of hydrochloride] :: 9 µg/mL

Then there is this molecule:
Prompt: Record request: S: solubility value, item Cc1cnc(-c2cc(O[C@@H](C)[C@@H](C)O)cc(C(=O)N[C@H](C)c3cnc(C(F)(F)F)nc3)c2F)s1 [Crystalline form A of maleate]
Response: 6 µg/mL
